# Measurement Description: qHTS of pediatric cancer cell lines to identify multiple opportunities for drug repurposing: Primary screen for SK-N-MC cells (AID 1347093);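 further: plate controls were DMSO neutral control for no effect and bortezomib for full effect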
# Condition Set: SK-N-MC viability, CellTiter-Glo luminescence, 48 h; series mostly up to 46 µM
Inconclusive results are not listed. The source made the active and inactive calls. The call rests on the fitted dose curve; in most records, active means well fitted cell-killing curve with a large enough effect; inconclusive means small, poorly fitted or top-dose-only effect; inactive means no such curve, though single readings can be large or run the other way.
Lab note: assign the record to one of active, inactive

Hi, sorry to bother you, what did the test record for Cc1cccc(Nc2cc(Cl)nc(SCC(=O)O)n2)c1C ?
inactive

Check the results log: what was the call for CCC(=O)c1ccc(O)cc1 ?
inactive

###

# Measurement Description: S16 Schwann cell viability assay (CellTiter-Glo assay) (AID 624031); further: nearly all actives have a fitted effect of over 70% in size
# Condition Set: S16 rat Schwann cells viability, 24 h; series mostly up to 57.5 µM
Results filed as inconclusive are left out. Calls of active or inactive are those of the source. Calls come from the whole dose curve; as a rule, active = well fitted cell-killing curve with a large enough effect; inconclusive = small, poorly fitted or top-dose-only effect, or effect the other way; inactive = flat fitted curve, though single readings scatter.
# output must be one of 1.0 (active), 0.0 (inactive)

Some entries whose results are on file:
| Compound | Classification |
| --- | --- |
| Cc1cccc(Nc2cc(Cl)nc(SCC(=O)O)n2)c1C | 0.0 |
| NC(=O)NNc1ccccc1 | 0.0 |
| CC1(C)CO[C@@H](CC(=O)O)CN1 | 0.0 |
| CCCCCCCCCCCCCCCCCCOCC(O)CO (stereo unspecified) | 0.0 |
| Cc1cc2c(cc1S(N)(=O)=O)S(=O)(=O)CCC2 | 0.0 |

Here's the next entry for you.
// return assay outcome for CSc1ccc2c(c1)C(N1CCN(C)CC1)Cc1ccccc1S2 (stereo unspecified)
1.0

###

# Tested on: PAD
# Measurement Description: qHTS profiling for inhibitors of Plasmodium falciparum proliferation (AID 504749); further: nearly all actives have a fitted effect of over 60% in size
# Condition Set: P. falciparum in erythrocytes, SYBR Green DNA, 72 h; series mostly up to 28.7 µM
Records with an inconclusive call do not appear. Calls of active or inactive are those of the source. Calls come from the whole dose curve; as a rule, active = well fitted inhibition curve with a large enough effect; inconclusive = small, poorly fitted or top-dose-only effect; inactive = flat fitted curve, though single readings scatter.
Write down the outcome that applies. Available outcomes: active, inactive

| Molecule | Classification |
| --- | --- |
| CCOc1nc2cccc(C(=O)O)c2n1Cc1ccc(-c2ccccc2-c2nn[nH]n2)cc1 | inactive |
| Cc1cccc(C)c1NC(=O)CN(CC(=O)O)CC(=O)O | inactive |
| Cc1cc2c(cc1S(N)(=O)=O)S(=O)(=O)CCC2 | inactive |
| COc1cc2[nH]c(=O)[nH]c(=O)c2cc1OC | inactive |
| COc1ccc2[nH]c(S(=O)Cc3ncc(C)c(OC)c3C)nc2n1 (stereo unspecified) | active |
| Cc1cc(CC(=O)O)n(C)c1C(=O)c1ccc(Cl)cc1 | inactive |
| CCN(CC)CCNC(C(=O)OCCC(C)C)c1ccccc1 (stereo unspecified) | inactive |
| O=C(O)c1ccccn1 | inactive |
| Nc1ccc(S(=O)(=O)Nc2ccccc2)cc1 | inactive |
| CC(C)(C)C(=O)NCCCC(=O)O | inactive |

Write down the call the test reported for this molecule. Item: Cc1cc(O)cc2c1O[C@](C)(CCC[C@H](C)CCC[C@H](C)CCCC(C)C)CC2
inactive

###

# Tested on: AS120
# Measurement Description: qHTS profiling for inhibitors of Plasmodium falciparum proliferation (AID 504749); further: nearly all actives have a fitted effect of over 60% in size
# Condition Set: P. falciparum in erythrocytes, SYBR Green DNA, 72 h; series mostly up to 28.7 µM
Inconclusive results are not listed. Activity calls are given as the source filed them. Calls follow the shape of the dose curve; as a rule, active = well fitted inhibition curve with a large enough effect; inconclusive = small, poorly fitted or top-dose-only effect; inactive = flat fitted curve, though single readings scatter.
Respond with a class label; see 1 for active, -1 for inactive

| Molecule | Classification |
| --- | --- |
| CC[C@@]1(c2ccccc2)NC(=O)N(C)C1=O | -1 |
| C#CCN(C)Cc1ccccc1 | -1 |
| Cc1cccc(Nc2cc(Cl)nc(SCC(=O)O)n2)c1C | -1 |
| O=C(O)COc1nn(Cc2ccccc2)c2ccccc12 | -1 |
| C[C@](N)(Cc1ccc(O)cc1)C(=O)O | -1 |

API: the following record is the query input.
Assay outcome for CCOC(=O)c1ccc(O)cc1 : what was it?
-1

###

# Measurement Description: Cytometry Cell-Based qHTS for Inhibitors of the mTORC1 Signaling Pathway in MEF cells (AID 2668);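 further: Tsc2-/- p53-/- mouse embryonic fibroblasts stably re-expressing wild-type Tsc2; percent cells positive for phospho-rpS6 Ser235/236 relative to propidium iodide stain; plate controls were DMSO wells for no effect and 7.5 nM rapamycin control wells for full effect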
# Condition Set: mTORC1 pathway readout; series mostly up to 38.3 µM
Records with an inconclusive call do not appear. The source made the active and inactive calls. Calls follow the shape of the dose curve; as a rule, active = well fitted inhibition curve with a large enough effect; inconclusive = small, poorly fitted or top-dose-only effect; inactive = flat fitted curve, though single readings scatter.

| Entry Smiles | outcome |
| --- | --- |
| CCCCCCCCCCCCCCCC(=O)NCCO | inactive |
| C=Cc1c(C)c2cc3[nH]c(cc4nc(cc5nc(cc1[nH]2)C(C)=C5CCC(=O)O)C(CCC(=O)O)=C4C)c(C)c3C=C | inactive |
| CC(C)C(=O)c1c(C(C)C)nn2ccccc12 | inactive |

###

# Study Target: Papain (Carica papaya)
# Measurement Description: Primary qHTS assay for inhibitors of the protease papain (AID 1645873);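 further: papain turnover of Z-FR-AMC read as the AMC fluorescence gain over 10 min; on the % scale 0 is the no-effect control and ±100 the full control effect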
# Condition Set: papain Z-FR-AMC cleavage, AMC fluorescence; series mostly up to 49.8 µM
Inconclusive results are not listed. Active and inactive are the calls of the source. Calls follow the shape of the dose curve; as a rule, active = well fitted inhibition curve with a large enough effect; inconclusive = small, poorly fitted or top-dose-only effect; inactive = no such curve, though single readings can be large or run the other way.

| Compound | outcome |
| --- | --- |
| O=C1NC(=O)[C@@]2(CCOc3ccc(F)cc32)N1 | inactive |
| CC(C)(C)c1onc(OCP(=O)(O)O)c1CC(N)C(=O)O (stereo not drawn) | inactive |
| C[C@H](NC(CCc1ccccc1)C(=O)O)C(=O)N1CCC[C@H]1C(=O)O (stereo partly drawn) | inactive |

###

# Test system: DIV14
# Measurement Description: qHTS profiling for inhibitors of Plasmodium falciparum proliferation (AID 504749); further: nearly all actives have a fitted effect of over 60% in size
# Condition Set: P. falciparum in erythrocytes, SYBR Green DNA, 72 h; series mostly up to 28.7 µM
Inconclusive results are not listed. Calls of active or inactive are those of the source. Calls follow the shape of the dose curve; as a rule, active = well fitted inhibition curve with a large enough effect; inconclusive = small, poorly fitted or top-dose-only effect; inactive = flat fitted curve, though single readings scatter.

| Compound | outcome |
| --- | --- |
| CCC(=O)Nc1ccc(O)cc1 | inactive |
| O=c1cc[nH]c(=O)[nH]1 | inactive |
| O=C1OC(OC(=O)c2cccnc2Nc2cccc(C(F)(F)F)c2)c2ccccc21 (stereo not drawn) | inactive |

###

# System: CP269
# Measurement Description: qHTS profiling for inhibitors of Plasmodium falciparum proliferation (AID 504749); further: nearly all actives have a fitted effect of over 60% in size
# Condition Set: P. falciparum in erythrocytes, SYBR Green DNA, 72 h; series mostly up to 28.7 µM
Inconclusive results are not listed. Calls of active or inactive are those of the source. Calls follow the shape of the dose curve; as a rule, active = well fitted inhibition curve with a large enough effect; inconclusive = small, poorly fitted or top-dose-only effect; inactive = flat fitted curve, though single readings scatter.
Give your call using only these classes: active, inactive

| Molecule | Classification |
| --- | --- |
| Cc1ncc(COP(=O)(O)O)c(C=O)c1O | inactive |
| O=C1NS(=O)(=O)c2ccccc21 | inactive |
| O=S(=O)(O)c1cc(I)c(O)c2ncccc12 | inactive |

Please turn your attention to the following entry.
Hello, I am checking results. What call was entered for CCCCCCCCCCCCOS(=O)(=O)O ?
inactive

###

# Tested on: KB-3-1
# Measurement Description: Cytotoxic Profiling of Annotated Libraries Using Quantitative High-Throughput Screening (AID 1296008)
# Condition Set: Five cell lines viability, CellTiter-Glo ATP luminescence, 48-72 h; active compounds read low
Inconclusive results are not listed. Active and inactive are the calls of the source. Calls come from the whole dose curve; as a rule, active = well fitted inhibition curve with a large enough effect; inconclusive = small, poorly fitted or top-dose-only effect; inactive = flat fitted curve, though single readings scatter.
Reported Property: max response

Example results:
| Compound | max response |
| --- | --- |
| CO/N=C(\C(=O)N[C@@H]1C(=O)N2C(C(=O)O)=C(CSc3nc(=O)c(O)nn3C)CS[C@H]12)c1csc(N)n1 | -0.48% (inactive) |
| COc1ccc2[nH]c(S(=O)Cc3ncc(C)c(OC)c3C)nc2n1 (stereo not given) | 2.51% (inactive) |
| CC[C@@]1(c2ccccc2)NC(=O)N(C)C1=O | 31.6% (inactive) |
| CCCc1c(OCCCCc2nn[nH]n2)ccc(C(C)=O)c1O | -12.2% (inactive) |
| CN(C)CCCN1c2ccccc2Sc2ccc(Cl)cc21 | -6.48% (inactive) |

I would be grateful if you could share the reported max response for C[C@H]1O[C@@H](n2cc(F)c(=O)[nH]c2=O)[C@H](O)[C@@H]1O .
-0.506% (inactive)

###

# System: CP268
# Measurement Description: qHTS profiling for inhibitors of Plasmodium falciparum proliferation (AID 504749); further: nearly all actives have a fitted effect of over 60% in size
# Condition Set: P. falciparum in erythrocytes, SYBR Green DNA, 72 h; series mostly up to 28.7 µM
Results filed as inconclusive are left out. Calls of active or inactive are those of the source. Calls come from the whole dose curve; as a rule, active = well fitted inhibition curve with a large enough effect; inconclusive = small, poorly fitted or top-dose-only effect; inactive = flat fitted curve, though single readings scatter.
Could you please pick one outcome from this set? active, inactive

Example entries begin here.
| Compound | Classification |
| --- | --- |
| NCCNCCNCCNCCN | inactive |
| CNCCCC1c2ccccc2C=Cc2ccccc21 | inactive |
| Cc1cccc(Nc2cc(Cl)nc(SCC(=O)O)n2)c1C | inactive |
| C[C@@H]1CN(c2c(F)c(F)c3c(=O)c(C(=O)O)cn(C4CC4)c3c2F)C[C@H](C)N1 | inactive |
| O=C(CCCN1CCN(c2ccccn2)CC1)c1ccc(F)cc1 | inactive |

Consider the record given below.
Called result for CC1(C)OC(=O)NC1=O
inactive

###

# Tested on: CP237
# Measurement Description: qHTS profiling for inhibitors of Plasmodium falciparum proliferation (AID 504749); further: nearly all actives have a fitted effect of over 60% in size
# Condition Set: P. falciparum in erythrocytes, SYBR Green DNA, 72 h; series mostly up to 28.7 µM
Inconclusive results are not listed. The source made the active and inactive calls. Calls come from the whole dose curve; as a rule, active = well fitted inhibition curve with a large enough effect; inconclusive = small, poorly fitted or top-dose-only effect; inactive = flat fitted curve, though single readings scatter.
Mark one answer only. Choices: active, inactive

Examples from the recorded data:
| Compound | Classification |
| --- | --- |
| O=c1cc[nH]c(=O)[nH]1 | inactive |
| CCOc1ccc2ccccc2c1C(=O)N[C@@H]1C(=O)N2[C@@H]1SC(C)(C)[C@@H]2C(=O)O | inactive |
| Cc1cc(N)c2ccccc2[n+]1CCCCCCCCCC[n+]1c(C)cc(N)c2ccccc21 | active |
| CCOC(=O)c1ccc(O)cc1 | inactive |
| COc1ccccc1O | inactive |

Identify the outcome logged in this assay for the compound shown: COc1ccc(S(=O)(=O)Nc2nnc(CC(C)C)s2)cc1
inactive

Record lookup: outcome of this test for CC1=C(CC(=O)O)c2cc(F)ccc2/C1=C\c1ccc(S(C)=O)cc1 (stereo not given) ?
inactive

Tell me the recorded outcome of this test for COC(=O)C1=C(C)NC(C)=C(C(=O)OC)C1c1ccccc1[N+](=O)[O-] .
inactive

In this assay, the call recorded for COc1cc2[nH]c(=O)[nH]c(=O)c2cc1OC was what?
inactive

Answer briefly: the call reported for CCC(=O)Nc1ccc(O)cc1 in this assay.
inactive

// return assay outcome for Cc1cc2c(cc1S(N)(=O)=O)S(=O)(=O)CCC2
inactive
